Molecular target: Carbonic anhydrase 9 (Homo sapiens, UniProt Q16790)
Reported Property: Ki (nM)
Reply with just the number (in nM).

## Input Lookup: Ki / Carbonic anhydrase 9 (Homo sapiens, UniProt Q16790) / CCOC(=O)c1cc(-c2ccccc2)n(-c2ccc(S(N)(=O)=O)cc2)n1
## Output 225
